Ref: PubChem BioAssay AID1645848

Experimental parameters: buffer; pH 7.4; 6.0 h; 150.0 µM
Observable: solubility kinetic (µg/mL)

>>> reported("COc1ccccc1N1CCN(CCN(C(=O)c2ccc(I)cc2)c2ccccn2)CC1")
53.8
>>> reported("O=S(=O)(Nc1nccs1)c1ccc(NCc2cccc3cc[nH]c23)cc1")
20.5
>>> reported("O=C(Nc1nc(-c2ccccc2)cs1)c1ccncc1NS(=O)(=O)c1ccc(F)c(F)c1")
49.8
>>> reported("CCCN(CCC)CCc1cccc2c1CC(=O)N2")
23.2
>>> reported("Cc1cc(Nc2nc(-c3ccncc3)nc3ccccc23)n[nH]1")
1.1

###

Experimental parameters: buffer; pH 7.4; 6.0 h; 150.0 µM
Observable: solubility kinetic (µg/mL)

>>> reported("O=C(CNC12CC3CC(CC(C3)C1)C2)c1ccc(Cl)cc1")
34.6
>>> reported("CCOc1ccc(/C=C/c2nc3ccccc3n2S(=O)(=O)c2ccc(Br)cc2)cc1")
0.131
>>> reported("CC(C)(C)CN1CCNc2cc(Nc3ccccc3)ncc2C1")
38.5

###

Experimental parameters: buffer; pH 7.4; 6.0 h; 150.0 µM
Observable: solubility kinetic

>>> reported("Cc1ccccc1C(=O)N1CCc2cc(-n3cc(NC(=O)Cc4ccccc4)cn3)ccc21")
"< 1 µg/mL"
>>> reported("O=c1cc(CN2CCCN(c3ccc(C(F)(F)F)cn3)CC2)nc2ccccn12")
"> 60 µg/mL"
>>> reported("CCc1ccc(-n2nnc(-c3nsc(NC(=O)c4ccccc4Cl)n3)c2C)cc1")
"< 1 µg/mL"
>>> reported("O=C1Nc2c(Cl)cccc2/C1=C\\c1cc(Cl)c(O)c(Cl)c1")
"7.3 µg/mL"
>>> reported("Cc1csc2nc(-c3cccc(NC(=O)c4ccccc4Cl)c3)cn12")
"< 1 µg/mL"
>>> reported("CCc1ccc(NC(=O)c2[nH]c(C)c(C(C)=O)c2C)cc1S(=O)(=O)Nc1ccc(C#N)cc1")
"2.19 µg/mL"
>>> reported("Cc1ccnc(NC(=S)N2CCN(c3cccc(C(F)(F)F)c3)CC2)c1")
"9.68 µg/mL"
>>> reported("Cc1cc(NS(=O)(=O)c2ccc(C(=O)NCc3ccc(Cl)c(Cl)c3)cc2)no1")
"> 65 µg/mL"
>>> reported("Fc1cnc(-c2ccccc2C(F)F)nc1NCC1CCN(c2cnccn2)CC1")
"< 1 µg/mL"

###

Experimental parameters: buffer; pH 7.4; 6.0 h; 150.0 µM
Observable: solubility kinetic

>>> reported("CSc1ccccc1-c1ccc(Nc2nc(-c3ccncc3)nc3ccccc23)cc1F")
"< 1 µg/mL"
>>> reported("CN(Cc1ccccc1)C(=O)C1CCN(Cc2cccc3ccccc23)CC1")
"> 55 µg/mL"
>>> reported("OCc1ccc(-c2nn(Cc3ccccc3)c3ccccc23)o1")
"2.72 µg/mL"
>>> reported("N[C@@H]1CN(c2c(F)cc3c(=O)c(C(=O)O)cn([C@@H]4C[C@@H]4F)c3c2Cl)CC12CC2")
"> 60 µg/mL"
>>> reported("COc1ccc(NC2=C(c3ccc(C(F)(F)F)cc3)C(=O)c3ccccc32)cc1")
"1.04 µg/mL"
>>> reported("COc1cc(-c2nc(-c3ccccc3)c(-c3cccs3)[nH]2)cc(OC)c1O")
"< 1 µg/mL"
>>> reported("Cc1nn(CCc2nc(-c3ccccc3)cs2)c2[nH]c(=O)cc(C(F)(F)F)c12")
"1.26 µg/mL"
>>> reported("COC(=O)CNC(=O)c1nc(-c2ccc(Cl)cc2Cl)c2cnccn12")
"14.2 µg/mL"
>>> reported("COC12C(COC(N)=O)C3=C(C(=O)C(C)=C(N)C3=O)N1CC1C2N1C (stereo unspecified)")
"> 51 µg/mL"
>>> reported("Cc1ccc(S(=O)(=O)NCCC(=O)Nc2nc(-c3ccccc3)cs2)cc1")
"< 1 µg/mL"
>>> reported("CCn1c(C(=O)N2CCCC(C(=O)NCCc3ccc(C)cc3)C2)cc2sccc21 (stereo unspecified)")
"17.1 µg/mL"
>>> reported("O=C(NC1CCCc2c1[nH]c1c(Cl)cccc21)c1ccc2c(c1)OCO2 (stereo unspecified)")
"< 1 µg/mL"
>>> reported("Cc1cccc(-c2noc([C@@H]3Cc4nc[nH]c4CN3C(=O)CC(C)(C)CC(=O)O)n2)c1")
"> 63 µg/mL"
>>> reported("COc1ccc(CCN2CCC(Nc3nc4ccccc4n3Cc3ccc(F)cc3)CC2)cc1")
"54.6 µg/mL"
>>> reported("CN1CCN(c2cc(-c3nc(Nc4ccc(F)c(F)c4)c4ccccc4n3)ccn2)CC1")
"< 1 µg/mL"
>>> reported("Fc1cccc(Nc2nc(-c3ccncc3)nc3ccccc23)c1F")
"< 1 µg/mL"
